# run_description: Peptide stability in simulated gastric fluid (SGF)
# Format: in vitro ADME
# experimental_setup: 10 µM, 37 °C, porcine pepsin, pH 1.2, 4 h
Some molecules, each annotated with its measured SGF (% remaining 4 h).
outcome_measure: SGF (% remaining 4 h) (%)

INSERT INTO assay_data (molecule, outcome_measure, unit_info, number) VALUES
  ('CNC(=O)[C@H](Cc1cccnc1)NC(=O)[C@H](CCN)NC(=O)[C@@H]1CCC(=O)NCCCC[C@@H]2NC(=O)CC[C@H](NC(=O)[C@H](CCC(N)=O)NC(=O)[C@H](Cc3c[nH]c4ccccc34)NC(=O)CCN(C)C2=O)C(=O)N[C@@H](Cc2ccc(OCCN)cc2)C(=O)N[C@@H](Cc2ccc3ccccc3c2)C(=O)N[C@@](C)(CC(C)C)C(=O)N1', 'SGF (% remaining 4 h)', '%', 99),
  ('CC(C)C[C@@H]1NC(=O)[C@H](Cc2c[nH]c3ccccc23)NC(=O)[C@H](Cc2c[nH]c3ccccc23)NC(=O)[C@@H]2CSCC(=O)CSC[C@H](NC(=O)[C@H]([C@@H](C)O)NC(=O)[C@@H](NC(=O)CN)CSCC(=O)CSC[C@@H](C(=O)N[C@@H](CO)C(N)=O)NC1=O)C(=O)N[C@@H](Cc1c[nH]c3ccccc13)C(=O)N[C@@H](CCC(=O)O)C(=O)N2 (single isomer, unassigned) [I1 (isomer 3), H-GC(1a)TC(2a)WEC(2a)WWLC(1a)S-[NH2], reference compound]', 'SGF (% remaining 4 h)', '%', 94),
  ('CSCC[C@H](NC(=O)[C@@H]1CSCC(=O)CSC[C@H](NC(=O)[C@@H](N)CCC(=O)O)C(=O)N[C@@H](Cc2c[nH]c3ccccc23)C(=O)N[C@@H](CC(C)C)C(=O)N[C@H]2CSCC(=O)CSC[C@H](NC(=O)[C@H](CC(N)=O)NC(=O)[C@H](CCCNC(=N)N)NC(=O)[C@H](Cc3ccc(O)cc3)NC(=O)[C@H](Cc3ccc(O)cc3)NC2=O)C(=O)N[C@@H](CC(N)=O)C(=O)N1)C(N)=O (single isomer, unassigned) [I4 (isomer 3), H-EC(4a)WLC(5a)YYRNC(5a)NC(4a)M-[NH2], reference compound]', 'SGF (% remaining 4 h)', '%', 99),
  ('CC[C@H](C)[C@@H]1NC(=O)[C@@H]2CCCCNC(=O)CC[C@@H](C(=O)N[C@@H](CCN)C(=O)N[C@@H](Cc3cccnc3)C(=O)NC)NC(=O)CNC(=O)[C@H](Cc3ccc4ccccc4c3)NC(=O)[C@H](Cc3ccc(OCCN)cc3)NC(=O)[C@H](CCC(=O)N2)NC(=O)[C@H](CCC(N)=O)NC(=O)[C@H](Cc2c[nH]c3ccccc23)NC(=O)[C@H](C(C)C)NC1=O', 'SGF (% remaining 4 h)', '%', 95),
  ('CC(C)C[C@@H]1NC(=O)[C@H](Cc2c[nH]c3ccccc23)NC(=O)[C@H](Cc2c[nH]c3ccccc23)NC(=O)[C@@H]2CSCC(=O)CSC[C@H](NC(=O)[C@H](CO)NC(=O)[C@@H](NC(=O)[C@@H](N)CC(=O)O)CSCC(=O)CSC[C@@H](C(=O)N[C@@H](CCCNC(=N)N)C(N)=O)NC1=O)C(=O)N[C@@H](Cc1c[nH]c3ccccc13)C(=O)N[C@@H](CCC(N)=O)C(=O)N2 (single isomer, unassigned) [I3 (isomer 3), H-DC(1a)SC(2a)WQC(2a)WWLC(1a)R-[NH2], reference compound]', 'SGF (% remaining 4 h)', '%', 0);
